subjectOfTest: human OX2R (Homo sapiens, UniProt O43614)
Sequence (O43614 whole entry): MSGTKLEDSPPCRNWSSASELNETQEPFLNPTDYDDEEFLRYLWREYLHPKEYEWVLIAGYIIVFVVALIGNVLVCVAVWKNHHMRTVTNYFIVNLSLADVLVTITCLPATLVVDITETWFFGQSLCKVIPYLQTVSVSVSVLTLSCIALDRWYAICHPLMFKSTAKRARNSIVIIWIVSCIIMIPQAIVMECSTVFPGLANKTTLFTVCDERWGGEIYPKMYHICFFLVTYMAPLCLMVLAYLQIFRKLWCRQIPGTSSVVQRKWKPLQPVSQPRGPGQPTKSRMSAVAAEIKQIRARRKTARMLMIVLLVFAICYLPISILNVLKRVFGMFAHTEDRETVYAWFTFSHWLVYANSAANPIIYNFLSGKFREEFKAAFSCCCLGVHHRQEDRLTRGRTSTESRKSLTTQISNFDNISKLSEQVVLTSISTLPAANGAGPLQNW
assayOverview: OX2R calcium mobilization assay
measurementContext: calcium mobilization

{"structure": "COc1ccc(CCC(=O)N(C)C)cc1S(=O)(=O)Nc1cccc(NCCNC(=O)c2cccc(C)c2)c1", "agonist activity at OX2R (in words)": "inactive"}
{"structure": "COc1ccc(-c2cccc(C(=O)N(C)C)c2)cc1S(=O)(=O)Nc1cccc(N2CCN(C(=O)c3cccc(C)c3)CC2)c1", "agonist activity at OX2R (in words)": "all activities were lost"}
{"structure": "COc1ccc(/C=C/C(=O)N(C)C)cc1S(=O)(=O)Nc1cccc(NCCNC(=O)c2cccc(C)c2)c1", "agonist activity at OX2R (in words)": "inactive"}
{"structure": "COc1ccc(-c2cccc(C(=O)N(C)C)c2)cc1S(=O)(=O)Nc1cccc(N2CCN(C(=O)c3ccccc3N(C)C)CC2)c1", "agonist activity at OX2R (in words)": "all activities were lost"}

The reported numbers originate from paper PMC8994207.
